- Subject Of Test: T1, USP38, Q8NB14
- T1 chain: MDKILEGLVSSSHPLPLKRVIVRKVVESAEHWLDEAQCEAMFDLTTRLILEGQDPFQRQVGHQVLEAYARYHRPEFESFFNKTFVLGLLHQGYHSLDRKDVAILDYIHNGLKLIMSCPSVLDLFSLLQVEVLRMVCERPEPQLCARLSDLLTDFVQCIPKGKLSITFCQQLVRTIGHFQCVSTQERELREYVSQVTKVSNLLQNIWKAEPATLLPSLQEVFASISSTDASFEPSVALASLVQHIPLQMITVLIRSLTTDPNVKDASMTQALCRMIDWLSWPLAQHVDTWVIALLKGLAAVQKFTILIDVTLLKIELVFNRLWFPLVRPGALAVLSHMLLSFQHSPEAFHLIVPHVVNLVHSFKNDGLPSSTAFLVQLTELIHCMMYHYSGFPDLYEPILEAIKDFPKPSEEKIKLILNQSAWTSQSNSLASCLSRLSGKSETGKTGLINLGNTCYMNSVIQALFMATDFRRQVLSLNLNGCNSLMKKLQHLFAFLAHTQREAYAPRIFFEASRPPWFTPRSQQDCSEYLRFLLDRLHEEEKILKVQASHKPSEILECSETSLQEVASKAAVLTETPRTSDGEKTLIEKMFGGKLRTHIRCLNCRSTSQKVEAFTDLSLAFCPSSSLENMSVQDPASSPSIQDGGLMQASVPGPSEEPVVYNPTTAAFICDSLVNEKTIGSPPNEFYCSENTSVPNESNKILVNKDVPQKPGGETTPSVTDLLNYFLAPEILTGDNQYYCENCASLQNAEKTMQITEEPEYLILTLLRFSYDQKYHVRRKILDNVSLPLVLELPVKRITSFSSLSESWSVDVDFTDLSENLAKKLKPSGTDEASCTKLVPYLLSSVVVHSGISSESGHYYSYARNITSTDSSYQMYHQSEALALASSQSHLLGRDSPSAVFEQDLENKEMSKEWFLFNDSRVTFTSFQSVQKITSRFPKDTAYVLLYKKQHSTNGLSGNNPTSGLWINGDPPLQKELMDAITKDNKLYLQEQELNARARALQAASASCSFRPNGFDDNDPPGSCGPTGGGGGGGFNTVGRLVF
- Experiment: median log2 fold change of GCK-ALFA target abundance (FLAG IP / Myc IP barcode read proportion) (log2 ratio); each designed protein is fused to an ALFA-tag nanobody in HEK293 cells to bring the named protein to FLAG-tagged glucokinase (GCK); Myc marks an untargeted standard; higher = target protein stabilised (more abundant)
- Experimental Conditions: target protein: 3xFLAG-MCP-GCK-ALFA reporter; HEK293 landing pad (RPLP)
Listing: median log2 fold change of selected binders

{"columns": ["Binder", "Observed Result"],
 "data": [
  ["usp_38_diff_out_14_2_99 (protein) AKEELEKATKETLKVLKEAIKKAKELLKEVKKDPSKAEEATKKLFEEWDKAADAVGKLAKLIEEHKEERKLNKEAIEKVNKELTELTKVTLEALEEAAKA", -0.478],
  ["usp_38_diff_out_18_14_255 (protein) SEELEKATISNLNSLKEDVKKDTERVIKLLEKNKDDPERVKRITERANRNLAGVRTYAEEVLKEAEEKGWEEVKKAAEELLKTVDEAKKKIEEKVKEVLA", 0.0514],
  ["usp_38_diff_out_1_153_22 (protein) MKEEELEKKVEEIKKKAKELLKEAKKLLESGKATREEVDKLADELGKLAVELRELRSEAAEDEEVYKKLKEKFKEAEKALNEAVDALNEAARRVFLKEAE", 0.146]
]}

// moving on: another record for median log2 fold change
Qu. Quick one: median log2 fold change for usp_38_diff_out_4_12_554 (protein) SAEERRRRFEEALREMERLHRETIEKLEELKEELKKTKDEKVLEEAEKLANEALSRLAELTTRALEEAENDEEVQEILDLYSRHVDEIVTLMNEMKKIMK ?
Ans. 0.0829

Entry source: the supplement of paper PMC12632987
